Where do these numbers come from? They come from patent US11702428B2.

Protocol summary: Pharmacokinetics in mice
Type: in vivo, CD-1 Mice
Condition description: mouse, plasma; Male CD-1 Mice, IV, 1 mg/kg; read-out: AUC 0-24 hr
Measurement name: AUC(0-t) (ng·h/mL)
Respond numerically; units are ng·h/mL and should not be typed.

Here is how some molecules turned out for AUC(0-t).
>  <Smiles structure>
CN(C)[C@H]1COc2c(S(=O)(=O)NC(=O)Nc3c4c(cc5c3CCC5)CCC4)cnn2C1

>  <AUC(0-t) / ng·h/mL>
2990

$$$$
>  <Smiles structure>
CC1(C)COc2c(S(=O)(=O)NC(=O)Nc3c4c(cc5c3CCC5)CCC4)cnn2C1

>  <AUC(0-t) / ng·h/mL>
29200

$$$$

Attention now shifts to the item below.
GET /values?readout=AUC(0-t)&item= `O=C(Nc1c2c(cc3c1CCC3)CCC2)NS(=O)(=O)c1cnn2c1OCC1(CC1)C2`
20200
